test system: EGFR Del19/T790M/C797S (H1975-clone #28); assay: EGFR degradation HTRF assay, H1975-clone #28 DTC cells; format: cell-based; settings: H1975 # 28 DTC cells; maximum percentage of inhibition (degradation)
valueKind: Dmax (%) H1975 # 28 DTC
Answers are plain numbers, in %.

These recorded examples may help you get a feel for the data.
Enquiry: What does the record list as Dmax (%) H1975 # 28 DTC for CCOc1cc(N2CCC(N3CCN(CCCc4cc(F)cc5c4oc(=O)n5C4CCC(=O)NC4=O)CC3)CC2)c(CC)cc1Nc1ncc(Br)c(Nc2ccc3nc(CC)ncc3c2P(C)(C)=O)n1 (centres unmarked) [Example 564] ?
Return: 81.87

Enquiry: Repeat with CCc1cc(Nc2ncc(Br)c(Nc3ccc4nc(C)ccc4c3P(C)(C)=O)n2)c(OC2CC2)cc1N1CCC(N2CCN(CCCc3cc(F)cc4c3oc(=O)n4C3CCC(=O)NC3=O)CC2)CC1 (centres unmarked) [Example 607]
Return: 78.76

Enquiry: Also CCOc1cc(N2CCC(N3CCN(CCc4ccc(F)c5c4oc(=O)n5C4CCC(=O)NC4=O)CC3)CC2)c(CC)cc1Nc1ncc(Br)c(Nc2cc(F)c3nc(CC)ccc3c2P(C)(C)=O)n1 (centres unmarked) [Example 592] , if possible.
Return: 82.2

Enquiry: Same thing, different molecule: CCc1ccc2c(P(C)(C)=O)c(Nc3nc(Nc4cc(CC)c(N5CCC(N6CCN(CCc7cc(C)cc8c7oc(=O)n8C7CCC(=O)NC7=O)CC6)CC5)cc4OC)ncc3Br)ccc2n1 (centres unmarked) [Example 442]
Return: 81.11

Consider the additional molecule presented here.
Enquiry: What does the record list as Dmax (%) H1975 # 28 DTC for CCOc1cc(N2CCC(N3CCN(CCCc4cc(C)cc5c4oc(=O)n5C4CCC(=O)NC4=O)CC3)CC2)c(CC)cc1Nc1ncc(Br)c(Nc2ccc3nc(CC)ccc3c2P(C)(C)=O)n1 (centres unmarked) [Example 636] ?
Return: 79.04
